Reported glycan array binding signal (z-score) values are given for each entry in this list.
molecular target: GlcNAc(b1-4)[GlcNAc(b1-6)]GalNAc; test: glycan array binding signal (z-score within array); higher = stronger binding; conditions: glycan notation: IUPAC condensed, linker removed
The entries come from a sample that favours the strongest signals as a whole.

{"columns": ["BINDER", "glycan array binding signal (z-score)"],
 "data": [
  ["SP15308F-bth-333-19-333 (Bacteroides thetaiotaomicron) (protein) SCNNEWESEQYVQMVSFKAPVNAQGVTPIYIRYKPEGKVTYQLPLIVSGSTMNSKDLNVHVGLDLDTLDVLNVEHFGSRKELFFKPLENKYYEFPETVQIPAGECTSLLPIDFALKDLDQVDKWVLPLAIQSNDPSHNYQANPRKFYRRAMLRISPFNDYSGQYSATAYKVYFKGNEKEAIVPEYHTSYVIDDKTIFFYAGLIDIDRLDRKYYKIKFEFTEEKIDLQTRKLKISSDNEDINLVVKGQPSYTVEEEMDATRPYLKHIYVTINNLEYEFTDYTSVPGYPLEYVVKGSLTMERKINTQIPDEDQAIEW", 0.249],
  ["AT3G09350(27) (Arabidopsis thaliana), Q84J81 (protein) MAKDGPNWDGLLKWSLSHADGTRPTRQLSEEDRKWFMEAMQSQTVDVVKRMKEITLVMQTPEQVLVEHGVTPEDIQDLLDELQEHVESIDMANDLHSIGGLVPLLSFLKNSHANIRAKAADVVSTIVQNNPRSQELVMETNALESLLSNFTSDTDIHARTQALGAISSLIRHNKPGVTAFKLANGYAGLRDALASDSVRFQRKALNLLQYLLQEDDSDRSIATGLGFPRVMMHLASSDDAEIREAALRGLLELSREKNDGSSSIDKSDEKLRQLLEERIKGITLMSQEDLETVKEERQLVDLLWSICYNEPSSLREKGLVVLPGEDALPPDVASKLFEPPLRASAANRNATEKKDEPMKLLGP", -0.008]
]}
